- systemName: Prostaglandin G/H synthase 1 (Homo sapiens, UniProt P23219)
- Sequence (P23219 whole entry): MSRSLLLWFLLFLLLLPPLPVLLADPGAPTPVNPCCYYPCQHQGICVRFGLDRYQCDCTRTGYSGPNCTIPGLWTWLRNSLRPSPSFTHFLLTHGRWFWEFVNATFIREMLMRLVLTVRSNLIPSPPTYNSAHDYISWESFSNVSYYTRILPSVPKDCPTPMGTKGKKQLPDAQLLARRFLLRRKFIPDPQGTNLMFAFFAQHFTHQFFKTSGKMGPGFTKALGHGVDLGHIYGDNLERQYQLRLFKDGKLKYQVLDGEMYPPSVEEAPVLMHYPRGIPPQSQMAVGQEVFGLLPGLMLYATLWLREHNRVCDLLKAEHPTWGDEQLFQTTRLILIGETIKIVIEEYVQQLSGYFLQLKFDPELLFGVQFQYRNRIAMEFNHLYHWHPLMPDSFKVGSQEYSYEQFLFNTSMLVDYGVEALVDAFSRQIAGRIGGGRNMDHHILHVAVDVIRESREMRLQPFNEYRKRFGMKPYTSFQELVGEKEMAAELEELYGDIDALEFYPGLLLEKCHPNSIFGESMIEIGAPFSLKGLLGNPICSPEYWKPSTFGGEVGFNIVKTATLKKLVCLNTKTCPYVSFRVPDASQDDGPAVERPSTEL
- experimentSummary: Compound was tested for the inhibition of recombinant human Prostaglandin G/H synthase 1 (COX-1)
endpoint: IC50 (µM)
Express it in µM; write the number only.

For record NS(=O)(=O)c1ccc(-c2cc3c(cc2Cc2ccccc2)OCO3)cc1 the listed IC50 is 25

----------
- systemName: Prostaglandin G/H synthase 2 (Homo sapiens)
- conditionContext: Blood; at 1 µM
- Description: In vitro average percent Inhibition of Prostaglandin G/H synthase 2 (COX-2) at a concentration of 1 uM in human whole blood by human whole blood assay
endpoint: inhibition (%)
API: value field is a number in %; no unit string.

Look over these answered cases.
{"columns": ["chemSmiles", "unitOfMeasurement", "experimentalResult"],
 "data": [
  ["CS(=O)(=O)c1ccc(-c2cc3c(cc2Cc2cccnc2)OCO3)cc1", "%", 15],
  ["Cc1ccc(Cc2cc3c(cc2-c2ccc(S(C)(=O)=O)cc2)OCO3)cc1", "%", 0],
  ["CS(=O)(=O)c1ccc(-c2cc3c(cc2C(=O)c2ccccc2)OCO3)cc1", "%", 25],
  ["Cc1cccc(C(=O)c2cc3c(cc2-c2ccc(S(C)(=O)=O)cc2)OCO3)c1", "%", 40],
  ["CS(=O)(=O)c1ccc(C2=C(c3ccccc3)C(=O)OC2)cc1", "%", 75]
]}

Proceeding to the next compound to report its inhibition.
// sample CS(=O)(=O)c1ccc(-c2cc3c(cc2Cc2cc(F)cc(F)c2)OCO3)cc1 , its inhibition was 15
